Values from paper PMC10138714

# System: rats
# procedure-details: Heart rate and ECG intervals in rats
# Assay type: in vivo, male Wistar rats
# condition-details: 10 mg/kg i.p., time 30 min
// reported PQ for each item listed
measured-attribute: PQ

smiles-str	measured-attribute	result
O=C(c1ccccc1)c1ccc(OCCCN2CCN(c3ccncc3)CC2)cc1	PQ	58.75 ± 1.3 ms
CC(=O)c1ccc(OCCCCCCCCN2CCN(c3ccncc3)CC2)cc1	PQ	51.3 ± 2.2 ms
CCC(=O)c1ccc(OCCCCCCCCN2CCN(c3ccncc3)CC2)cc1	PQ	56.3 ± 2.2 ms
c1ccc(-c2ccc(OCCCN3CCN(c4ccncc4)CC3)cc2)cc1	PQ	54.5 ± 3.5 ms
